System: Septoria tritici (St)
Assay: Growth inhibition assay of fungal pathogens, St
Assay type: cell-based
Details: Zymoseptoria tritici, 48 h, Septoria tritici; growth inhibition at 48 hours vs 2% DMSO control; read-out: Concentration at 90% Inhibition St
Experimental: Compounds of the present invention were evaluated in a growth inhibition assay to determine the ability to control the growth of fungal pathogens, such as Botrtyis cinerea (Bc), Collectotrichum graminicola (Cg), Diplodia maydis (Dm), Fusarium moniliforme (Fm), Fusarium virguliforme (Fv), Phytophthora capsici (Pc), Rhizoctonia solani (Rs), and Septoria tritici (St). Compounds to be tested were dissolved in DMSO at 2.5 mg/ml to produce compound stock solutions (“stocks”). […]
Overview of recorded IC90 for various compounds

# compound, IC90
data = [
    ("COc1ccc(F)cc1[C@H](Cn1c(=O)n(C(C)(C)C(=O)NC(C)C)c(=O)c2c(C)c(-n3nccn3)sc21)OC(=O)CO [Compound I-262]", "> 50 µg/mL"),
    ("Cc1c(-n2nccn2)sc2c1c(=O)n(C(C)(C)C(=O)NC(C)C)c(=O)n2CCc1cc(F)ccc1OC1CCOCC1 [Compound I-279]", "> 50 µg/mL"),
    ("CCNC(=O)C(C)(C)n1c(=O)c2c(C)c(-n3nccn3)sc2n(C[C@@H](O)c2cc(F)ccc2OC)c1=O [Compound I-254]", "> 50 µg/mL"),
    ("CCc1ccc(F)cc1[C@H](Cn1c(=O)n(C(C)(C)C(=O)NC(C)C)c(=O)c2c(C)c(-n3nccn3)sc21)OCCOC [Compound I-126]", "10 µg/mL"),
    ("COc1ccc(F)cc1[C@H](Cn1c(=O)n(C(C)(C)C(=O)N2CC=CC2)c(=O)c2c(C)c(-n3nccn3)sc21)OC1CCOCC1 [Compound I-62]", "> 50 µg/mL"),
]

Okay, next one:
Field request: IC90 | item: COc1ccc(F)cc1[C@H](Cn1c(=O)n(C(C)(C)C(=O)NC2CCC2)c(=O)c2c(C)c(-n3nccn3)sc21)OC1CCOCC1 [Compound I-27]
2 µg/mL

* * *

Test system: C. krusei
Assay: Antifungal Activity Assay (broth microtiter MIC), C. krusei
Format: cell-based, Candida krusei
Settings: Pichia kudriavzevii, ATCC6258, 48 h, Table 3b (additional results); ATCC 6258; 3 replicates; MIC recorded at 48 h; read-out: MIC, C. krusei ATCC 6258
value-kind: MIC

# molecule, reported-result
rows = [
    ("Cc1c(-n2nccn2)sc2c1c(=O)n(C(C)(C)C(=O)NC(C)C)c(=O)n2C[C@H](OCCC#N)c1cc(F)ccc1OCc1ccccc1", "2.01 to 4 µg/mL"),
    ("COc1ccc(F)cc1[C@](C)(Cn1c(=O)n(C(C)(C)C(=O)NC(C)C)c(=O)c2c(C)c(-n3nccn3)sc21)OCCC#N", "0.25 to 1 µg/mL"),
    ("COCCO[C@@H](Cn1c(=O)n(C(C)C(=O)N2CCCC2)c(=O)c2c(C)c(-n3nccn3)sc21)c1cc(F)ccc1OC (stereo partly drawn)", "2.01 to 4 µg/mL"),
    ("COc1ccc(F)cc1[C@H](Cn1c(=O)n([C@H](C)C(=O)NC(C)C)c(=O)c2c(C)c(-n3nccn3)sc21)OCC(C)(C)C#N", "2.01 to 4 µg/mL"),
    ("COc1ccc(Cl)cc1[C@H](Cn1c(=O)n(C(C)(C)C(=O)NC(C)C)c(=O)c2c(C)c(-n3nccn3)sc21)OCC(C)(C)C#N", "0.25 to 1 µg/mL"),
    ("COc1ccc(F)cc1[C@H](Cn1c(=O)n(C(C)(C)C(N)=O)c(=O)c2c(C)c(-n3nccn3)sc21)OC(C)C", "0.25 to 1 µg/mL"),
]

May I ask what MIC has been recorded for `Cc1c(-n2nccn2)sc2c1c(=O)n(C(C)(C)C(=O)NC(C)C)c(=O)n2C[C@H](OC1CCOCC1)c1cc(F)ccc1OCc1ccccc1` ?
0.25 to 1 µg/mL

Now the same for `COc1ccccc1[C@@H](O)Cn1c(=O)n(C(C)(C)C(N)=O)c(=O)c2c(C)c(-n3nccn3)sc21`
2.01 to 4 µg/mL

Please answer likewise for COc1ccc(F)cc1[C@H](Cn1c(=O)n(C(C)(C)C(=O)N2CC=CC2)c(=O)c2c(C)c(-n3nccn3)sc21)OCC(C)O (stereo partly drawn)
> 4.01 µg/mL

Next up: `COc1ccc(F)cc1[C@H](Cn1c(=O)n(C(C)(C)C(=O)OC(C)C)c(=O)c2c(C)c(-n3nccn3)sc21)OCCO`
0.25 to 1 µg/mL

Same again, this time with `COc1ccc(F)cc1[C@H](Cn1c(=O)n(C(C)(C)C(=O)NC(C)C)c(=O)c2c(C)c(-n3nccn3)sc21)O[C@H]1C[C@@H](OCc2ccccc2)C1`
0.25 to 1 µg/mL

Would you kindly repeat that for `COc1ccc(F)cc1[C@H](Cn1c(=O)n(C(C)(C)C(=O)NC(C)C)c(=O)c2c(C)c(-n3nccn3)sc21)OCC(C)=O` ?
0.25 to 1 µg/mL

// provenance: patent US10800791B2
